Target Under Test: SARS-CoV-2 Receptor Binding Domain (RBD) protein (SARS-CoV-2)
Assay Remarks: SPR (Carterra LSA), scFv captured via anti-V5, RBD as analyte, 1:1 fit
Measure Name: Kd (nM)
Give bare numbers, in nM.

COVID19_P24_A09 (scFv, V domains shown) VH: QVQLVQSGAEVKKPGASVKVSCKASGYTFTDYYMQWVRQAPGQGLEWMGWIDPHSGATNYAHSFQGRVTMTRDTSTSTVYMELSSLRSEDTAVYYCARLEGGSYWTGYFDLWGRGTLVTVSS VL: EIVMTQSPATLSVSPGERATLSCRASQSVSSNYLAWYQQKPGQAPRLLIYAVSSRATGIPARFSGSGSGTEFTLTISSLQSEDFAVYYCQQYGSSPLTFGGGTKVEIKR :: 1.51

Here is another binder to look at.
Consider the binder COVID19_P24_A11 (scFv, V domains shown) VH: QVQLVQSGAEVKKPGASVKVSCKASGYTFTENEMHWVRQAPGQGLEWMGIINPSGGSTSYAQKFQGRVTMTRDTSTSTVYMELSSLRSEDTAVYYCARDLMDIVVVPWLGGMDVWGQGTTVTVSS VL: DIQMTQSPSSLSASVGDRVTITCRASQAITNYLAWYQQKPGKAPKLLIYAASSLQSGVPSRFSGSGSGTDFTLTISSLQPEDFATYYCQQYYSYPPTFGQGTKLEIKR and give its measured Kd. 1.95
